- Type: physicochemical
- REPORTED_CONDITIONS: HPLC on reversed phase columns, method [a]: pH 2.7, 0.1% formic acid in water and acetonitrile, linear gradient 10% to 95% acetonitrile
Kindly state log P for each of the entries shown.

According to the records, this compound C#CC1(NC(=O)C2(C)CC(c3ccc4ncc(Br)cc4c3)=NO2)COC1 (stereo not shown) displays log P of 2.37[a]

// sample CC1(C(=O)NCc2cnc(Cl)cn2)CC(c2ccc3ncc(Br)cc3c2)=NO1 (stereo not shown) , its log P was 2.73[a]

Measured log P, C#Cc1cnc2ccc(C3=NOC(C)(C(=O)NCc4cc(CC)ccn4)C3)cc2c1 (stereo not shown) : 1.64[a]

For CCn1cc(NC(=O)C2(C)CC(c3ccc4ncc(Br)cc4c3)=NO2)cn1 (stereo not shown) the compound record lists log P as 2.45[a]
